- Tested target: MAGI2_3, Q86UL8
- Sequence (Q86UL8 600-682): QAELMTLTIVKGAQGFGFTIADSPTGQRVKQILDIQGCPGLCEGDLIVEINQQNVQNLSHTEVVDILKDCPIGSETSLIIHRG
- Test details: holdup assay
- Set-up: key: below the threshold = too weak to quantify, mostly under pKd 3.1 to 4
- Recorded conditions: plain residues with an end cap or a label only (N-terminal biotin on a linker: ttds)
Assay metric: pKd

>>> print(df.to_string())
                          binder       measured_value
0  PRVKPQRSKV [PPP1R13L, Q8WUF5]  below the threshold
1    VDFPPKESSL [ACVR2A, P27037]  below the threshold
2     RPLPRKVSQL [DOCK4, Q8N1I0]  below the threshold
3    RLPKIKETTV [FRMPD4, Q14CM0]                 4.05
4  SKPTRRETEV [HPV35-E6, P27228]  below the threshold
5  RHTTSTETAV [HPV30-E6, P36809]                 4.57
6  RLQRRRETQV [HPV18-E6, P06463]                 4.15
7     EMDRRPATVV [PLCB4, Q15147]  below the threshold

Exam item: Quick check: pKd of PVRVCEETSL [OTULIN, Q96BN8] ?
Marked response: below the threshold
